tested on: 313798-341-R-J2-PDC spheroids, viability; test: Anticancer human tumor 313798-341-R-J2-PDC patient-derived cervical squamous cell carcinoma cell line growth inhibition [PI3K]; settings: curve of first compound; second compound 0.316 µM; spheroids with HUVEC and MSC
readoutName: IC50 (µM)

molecule	readoutName	unitAbbrev	reportedResult
CCCS(=O)(=O)Nc1ccc(F)c(C(=O)c2c[nH]c3ncc(-c4ccc(Cl)cc4)cc23)c1F + CC(Nc1ccc2c(c1)OCCn1cc(N3C(=O)OCC3C(F)F)nc1-2)C(N)=O	IC50	µM	3.56
CC(C)NCC(C(=O)N1CCN(c2ncnc3c2C(C)CC3O)CC1)c1ccc(Cl)cc1 (stereo unspecified) + CC(Nc1ncnc2nc[nH]c12)c1cc2cccc(Cl)c2c(=O)n1-c1ccccc1	IC50	µM	1.72
Cn1ncc(Cl)c1-c1cc(C(=O)NC(CN)Cc2cccc(F)c2)sc1Cl (stereo unspecified) + Cc1nc(NC(=O)N2CCCC2C(N)=O)sc1-c1ccnc(C(C)(C)C(F)(F)F)c1	IC50	µM	0.868

P: C[C@@H](NC(=O)c1ncnc(N)c1Cl)c1ncc(C(=O)Nc2cc(C(F)(F)F)c(Cl)cn2)s1 + CC(Nc1ccc2c(c1)OCCn1cc(N3C(=O)OCC3C(F)F)nc1-2)C(N)=O
Q: CC1(C)CCC(CN2CCN(c3ccc(C(=O)NS(=O)(=O)c4ccc(NCC5CCOCC5)c([N+](=O)[O-])c4)c(Oc4cnc5[nH]ccc5c4)c3)CC2)=C(c2ccc(Cl)cc2)C1 + Cc1nc(NC(=O)N2CCCC2C(N)=O)sc1-c1ccnc(C(C)(C)C(F)(F)F)c1
Task item: Which numeric IC50 is bigger, that of P or that of Q ? # respond with the chosen item's label
Reply: Q
(Q: 5.32 µM, P: 1.91 µM)

###

system: 313798-341-R-J2-PDC spheroids, viability; assay: Anticancer human tumor 313798-341-R-J2-PDC cell line growth inhibition [PI3K]; details: curve of first compound; second compound 0.316 µM; spheroids with HUVEC and MSC;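 also: spheroids exposed to compounds for seven days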
readoutName: IC50

Before answering, review these 4 worked examples.
compound	reportedResult
C=CC(=O)N1CCN(c2nc(=O)n(-c3c(C)ccnc3C(C)C)c3nc(-c4c(O)cccc4F)c(F)cc23)C(C)C1 (stereo unspecified) + CC(Nc1ccc2c(c1)OCCn1cc(N3C(=O)OCC3C(F)F)nc1-2)C(N)=O	> 10000 nM
CCCS(=O)(=O)Nc1ccc(F)c(C(=O)c2c[nH]c3ncc(-c4ccc(Cl)cc4)cc23)c1F + CC(Nc1ncnc2nc[nH]c12)c1cc2cccc(Cl)c2c(=O)n1-c1ccccc1	6520 nM
CC1(C)CCC(CN2CCN(c3ccc(C(=O)NS(=O)(=O)c4ccc(NCC5CCOCC5)c([N+](=O)[O-])c4)c(Oc4cnc5[nH]ccc5c4)c3)CC2)=C(c2ccc(Cl)cc2)C1 + CC(Nc1ncnc2nc[nH]c12)c1cc2cccc(Cl)c2c(=O)n1-c1ccccc1	9970 nM
Cn1ncc(Cl)c1-c1cc(C(=O)NC(CN)Cc2cccc(F)c2)sc1Cl (stereo unspecified) + CC(Nc1ccc2c(c1)OCCn1cc(N3C(=O)OCC3C(F)F)nc1-2)C(N)=O	535 nM

Shift focus to the following entry.
Task item: Notebook entry, 313798-341-R-J2-PDC spheroids, viability assay: IC50 of CC(C)NCC(C(=O)N1CCN(c2ncnc3c2C(C)CC3O)CC1)c1ccc(Cl)cc1 (stereo unspecified) + CC(Nc1ccc2c(c1)OCCn1cc(N3C(=O)OCC3C(F)F)nc1-2)C(N)=O = ?
Reply: 805 nM

###

tested on: 313798-341-R-J2-PDC spheroids, viability; experiment: Anticancer human tumor 313798-341-R-J2-PDC cell line growth inhibition [PI3K]; conditions: second compound 0.0316 µM; first compound 0.316 µM; stronger effect = lower value; spheroids with HUVEC and MSC;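 also: spheroids exposed to compounds for seven days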;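 as to viability, T/C: 100% = DMSO vehicle control viability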
readoutName: viability, T/C (%)
Your answer is read as %, so omit the unit and give the number.

compound	unitAbbrev	reportedResult
C#Cc1c(F)ccc2cc(O)cc(-c3ncc4c(N5CC6CCC(C5)N6)nc(OCC56CCCN5CC(F)C6)nc4c3F)c12 (stereo unspecified) + COc1c(OCCCN2CCOCC2)ccc2c3n(c(=NC(=O)c4cnc(N)nc4)nc12)CCN3	%	96.8

Task item: Notebook entry, 313798-341-R-J2-PDC spheroids, viability assay: viability, T/C of C[C@@H](NC(=O)c1ncnc(N)c1Cl)c1ncc(C(=O)Nc2cc(C(F)(F)F)c(Cl)cn2)s1 + CC(Nc1ncnc2nc[nH]c12)c1cc2cccc(Cl)c2c(=O)n1-c1ccccc1 = ?
Reply: 106

Task item: Notebook entry, 313798-341-R-J2-PDC spheroids, viability assay: viability, T/C of C[C@@H](NC(=O)c1ncnc(N)c1Cl)c1ncc(C(=O)Nc2cc(C(F)(F)F)c(Cl)cn2)s1 + CC(Nc1ccc2c(c1)OCCn1cc(N3C(=O)OCC3C(F)F)nc1-2)C(N)=O = ?
Reply: 110

Task item: Notebook entry, 313798-341-R-J2-PDC spheroids, viability assay: viability, T/C of CNC(=O)c1ccc(N2C(=S)N(c3ccc(C#N)c(C(F)(F)F)c3)C(=O)C2(C)C)cc1F + COc1c(OCCCN2CCOCC2)ccc2c3n(c(=NC(=O)c4cnc(N)nc4)nc12)CCN3 = ?
Reply: 73.2

Task item: Notebook entry, 313798-341-R-J2-PDC spheroids, viability assay: viability, T/C of CC(C)NCC(C(=O)N1CCN(c2ncnc3c2C(C)CC3O)CC1)c1ccc(Cl)cc1 (stereo unspecified) + COc1c(OCCCN2CCOCC2)ccc2c3n(c(=NC(=O)c4cnc(N)nc4)nc12)CCN3 = ?
Reply: 59.9

###

tested on: 313798-341-R-J2-PDC spheroids, viability; assay: Anticancer human tumor 313798-341-R-J2-PDC cell line growth inhibition [PI3K]; conditions: second compound 0.0316 µM; first compound 0.316 µM; stronger effect = lower value; spheroids with HUVEC and MSC;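 also: spheroids exposed to compounds for seven days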;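 as to viability, T/C: 100% = DMSO vehicle control viability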
readoutName: viability, T/C (%)
Your answer is read as %, so omit the unit and give the number.

compound	unitAbbrev	viability, T/C
CCN1CCN(Cc2ccc(Nc3ncc(F)c(-c4cc(F)c5nc(C)n(C(C)C)c5c4)n3)nc2)CC1 + CC(Nc1ccc2c(c1)OCCn1cc(N3C(=O)OCC3C(F)F)nc1-2)C(N)=O	%	133
CC1(C)CCC(CN2CCN(c3ccc(C(=O)NS(=O)(=O)c4ccc(NCC5CCOCC5)c([N+](=O)[O-])c4)c(Oc4cnc5[nH]ccc5c4)c3)CC2)=C(c2ccc(Cl)cc2)C1 + COc1c(OCCCN2CCOCC2)ccc2c3n(c(=NC(=O)c4cnc(N)nc4)nc12)CCN3	%	69.3
CC1(C)CCC(Nc2ncc(C(F)(F)F)c(-c3c[nH]c4c(P(C)(C)=O)c(C#N)ccc34)n2)CN1 (stereo not given) + CC(Nc1ncnc2nc[nH]c12)c1cc2cccc(Cl)c2c(=O)n1-c1ccccc1	%	46.9
CC1(C)CCC(Nc2ncc(C(F)(F)F)c(-c3c[nH]c4c(P(C)(C)=O)c(C#N)ccc34)n2)CN1 (stereo not given) + Cc1nc(NC(=O)N2CCCC2C(N)=O)sc1-c1ccnc(C(C)(C)C(F)(F)F)c1	%	52.4
C=CC(=O)N1CCN(c2nc(=O)n(-c3c(C)ccnc3C(C)C)c3nc(-c4c(O)cccc4F)c(F)cc23)C(C)C1 (stereo not given) + CC(Nc1ncnc2nc[nH]c12)c1cc2cccc(Cl)c2c(=O)n1-c1ccccc1	%	113

Task item: Which viability, T/C value belongs to CCCS(=O)(=O)Nc1ccc(F)c(C(=O)c2c[nH]c3ncc(-c4ccc(Cl)cc4)cc23)c1F + CC(Nc1ccc2c(c1)OCCn1cc(N3C(=O)OCC3C(F)F)nc1-2)C(N)=O ?
Reply: 97.7

Task item: Which viability, T/C value belongs to Cn1nccc1Nc1nccc(-c2ccn(C(CO)c3ccc(Cl)c(F)c3)c(=O)c2)n1 (stereo not given) + CC(Nc1ccc2c(c1)OCCn1cc(N3C(=O)OCC3C(F)F)nc1-2)C(N)=O ?
Reply: 102

Task item: Which viability, T/C value belongs to CC1(C)CCC(Nc2ncc(C(F)(F)F)c(-c3c[nH]c4c(P(C)(C)=O)c(C#N)ccc34)n2)CN1 (stereo not given) + COc1c(OCCCN2CCOCC2)ccc2c3n(c(=NC(=O)c4cnc(N)nc4)nc12)CCN3 ?
Reply: 27.4

Task item: Which viability, T/C value belongs to C[C@@H](NC(=O)c1ncnc(N)c1Cl)c1ncc(C(=O)Nc2cc(C(F)(F)F)c(Cl)cn2)s1 + Cc1nc(NC(=O)N2CCCC2C(N)=O)sc1-c1ccnc(C(C)(C)C(F)(F)F)c1 ?
Reply: 103

Task item: Which viability, T/C value belongs to CC1(C)CCC(Nc2ncc(C(F)(F)F)c(-c3c[nH]c4c(P(C)(C)=O)c(C#N)ccc34)n2)CN1 (stereo not given) + CC(Nc1ccc2c(c1)OCCn1cc(N3C(=O)OCC3C(F)F)nc1-2)C(N)=O ?
Reply: 37.9
